Source of measurements: paper PMC3599263

Biological target: BuChE from equine serum (Equus caballus, UniProt P81908)
Construct: BuChE from equine serum; purchased Sigma-Aldrich (Steinheim, Germany); host or cells: equine serum
Sequence (P81908 whole entry): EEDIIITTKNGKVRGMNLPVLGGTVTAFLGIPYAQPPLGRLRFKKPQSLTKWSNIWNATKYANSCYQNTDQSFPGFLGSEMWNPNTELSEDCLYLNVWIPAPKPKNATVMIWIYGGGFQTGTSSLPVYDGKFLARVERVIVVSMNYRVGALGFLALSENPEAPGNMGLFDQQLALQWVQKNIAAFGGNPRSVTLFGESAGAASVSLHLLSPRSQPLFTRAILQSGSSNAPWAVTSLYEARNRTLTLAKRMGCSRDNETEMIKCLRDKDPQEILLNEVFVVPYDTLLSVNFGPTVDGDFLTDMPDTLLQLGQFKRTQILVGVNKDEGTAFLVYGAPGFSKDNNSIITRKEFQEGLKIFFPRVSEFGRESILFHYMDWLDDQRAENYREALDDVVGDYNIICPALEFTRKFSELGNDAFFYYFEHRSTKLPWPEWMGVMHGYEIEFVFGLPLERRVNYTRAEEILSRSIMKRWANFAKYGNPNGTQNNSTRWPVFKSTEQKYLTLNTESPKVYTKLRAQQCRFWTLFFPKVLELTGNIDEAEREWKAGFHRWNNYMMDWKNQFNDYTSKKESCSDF
Test: biochemical

- Compound: "COc1cc2c(cc1OC)C(=O)/C(=C/c1cc[n+](Cc3ccccc3)cc1)O2 [5a]"
  IC50 / µM: 1.4
